Molecular target: T1, anti-Jagged antibody 4D11 (fully human IgG)
T1 construct: Human IgG1 kappa from HEK-293 cells; Labeled with Alexa Fluor 680 in the tissue stainings, biotinylated in the peptide screens; also called anti-Jagged 4D11; 4D11 antibody
T1 sequence (VH, as listed by the source, chain 1 of 2): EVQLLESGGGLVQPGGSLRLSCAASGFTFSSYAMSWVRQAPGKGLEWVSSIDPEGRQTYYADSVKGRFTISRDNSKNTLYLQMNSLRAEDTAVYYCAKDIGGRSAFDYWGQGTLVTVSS
T1 sequence (VL, as listed by the source, chain 2 of 2): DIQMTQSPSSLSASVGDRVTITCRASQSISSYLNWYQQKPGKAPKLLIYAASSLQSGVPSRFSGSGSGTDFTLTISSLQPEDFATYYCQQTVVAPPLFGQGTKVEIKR
Experiment: FACS of bacteria displaying the peptide
observed_property: binding result

Answered cases to consult:
1. PWCMQRQDFLRCPQP [masking moiety JS4874]    binds
2. YCLQLPHYMQAMCGR [masking moiety JS4899]    binds
3. QLGLPAYMCTFECLR [masking moiety JS4879]    binds
4. CNLWVSGGDCGGLQG [masking moiety JS4896]    binds
5. CFLYSCTDVSYWNNT [masking moiety JS4906]    binds

Dear colleague, I am looking for the recorded binding result of the following binder: SCSLWTSGSCLPHSP [masking moiety JS4897]
binds

Source of measurements: patent US20190367589A1
